Test system: Bacillus
EXPERIMENT: Antibacterial activity against Bacillus spp. obtained from complicated skin and skin structure infections by agar dilution method
Assay type: functional
MEASURED_METRIC: MIC50 (mg/L)
One number for each entry, in mg/L.

Recorded MIC50, per entry:
MOLECULAR_STRING	MEASURED_METRIC	ASSAY_VALUE
CCC[C@@H]1C[C@@H](C(=O)N[C@@H]([C@H]2O[C@H](SC)[C@H](O)[C@@H](O)[C@H]2O)[C@H](C)Cl)N(C)C1	MIC50	1
CC(=O)NC[C@H]1CN(c2ccc(N3CCOCC3)c(F)c2)C(=O)O1	MIC50	1

For each of the molecules below, state MIC50.
1. Cc1onc(-c2ccccc2)c1C(=O)N[C@@H]1C(=O)N2[C@@H]1SC(C)(C)[C@@H]2C(=O)O
2. CN[C@H](CC(C)C)C(=O)N[C@H]1C(=O)N[C@@H](CC(N)=O)C(=O)N[C@H]2C(=O)N[C@H]3C(=O)N[C@H](C(=O)N[C@H](C(=O)O)c4cc(O)cc(O)c4-c4cc3ccc4O)[C@H](O)c3ccc(c(Cl)c3)Oc3cc2cc(c3O[C@@H]2O[C@H](CO)[C@@H](O)[C@H](O)[C@H]2O[C@H]2C[C@](C)(N)[C@H](O)[C@H](C)O2)Oc2ccc(cc2Cl)[C@H]1O

Solution:
0.25
1

* * *

EXPERIMENT: Antibacterial activity against Streptococcus sp. 'group G' obtained from complicated skin and skin structure infections by agar dilution method
Type: functional
Please provide measured MIC50 for the entries that follow.
Numbers only, in µg/mL.

In the examples that follow, each entry is paired with its recorded MIC50.
MOLECULAR_STRING	MEASURED_METRIC	ASSAY_VALUE
CN[C@H](CC(C)C)C(=O)N[C@H]1C(=O)N[C@@H](CC(N)=O)C(=O)N[C@H]2C(=O)N[C@H]3C(=O)N[C@H](C(=O)N[C@H](C(=O)O)c4cc(O)cc(O)c4-c4cc3ccc4O)[C@H](O)c3ccc(c(Cl)c3)Oc3cc2cc(c3O[C@@H]2O[C@H](CO)[C@@H](O)[C@H](O)[C@H]2O[C@H]2C[C@](C)(N)[C@H](O)[C@H](C)O2)Oc2ccc(cc2Cl)[C@H]1O	MIC50	0.25
C[C@H]1COc2c(N3CCN(C)CC3)c(F)cc3c(=O)c(C(=O)O)cn1c23.C[C@H]1COc2c(N3CCN(C)CC3)c(F)cc3c(=O)c(C(=O)O)cn1c23.O	MIC50	0.5
CCC[C@@H]1C[C@@H](C(=O)N[C@@H]([C@H]2O[C@H](SC)[C@H](O)[C@@H](O)[C@H]2O)[C@H](C)Cl)N(C)C1	MIC50	0.06
CC[C@H]1OC(=O)[C@H](C)[C@@H](O[C@H]2C[C@@](C)(OC)[C@@H](O)[C@H](C)O2)[C@H](C)[C@@H](O[C@@H]2O[C@H](C)C[C@H](N(C)C)[C@H]2O)[C@](C)(O)C[C@@H](C)C(=O)[C@H](C)[C@@H](O)[C@]1(C)O	MIC50	0.06
CC(=O)NC[C@H]1CN(c2ccc(N3CCOCC3)c(F)c2)C(=O)O1	MIC50	1

For every item in the list below, what is its measured MIC50?
1. CC(C)(O/N=C(\C(=O)N[C@@H]1C(=O)N2C(C(=O)[O-])=C(C[n+]3ccccc3)CS[C@H]12)c1csc(N)n1)C(=O)O
2. Nc1nc(/C(=N/O)C(=O)N[C@@H]2C(=O)N3C(C(=O)O)=C(/C=C4\CCN([C@@H]5CCNC5)C4=O)CS[C@H]23)ns1

Solution:
[0.25, 0.008]

* * *

System: Enterobacter amnigenus
EXPERIMENT: Antibacterial activity against Enterobacter amnigenus obtained from complicated skin and skin structure infections by agar dilution method
Format: functional
TEST_SETTINGS: Lelliottia amnigena
// assign rule met if MIC90 falls strictly below 8 µg/mL, else rule not met (ties count as rule not met)

MOLECULAR_STRING	LABEL_VALUE
CO/N=C(\C(=O)N[C@@H]1C(=O)N2C(C(=O)[O-])=C(C[N+]3(C)CCCC3)CS[C@H]12)c1csc(N)n1	rule met
Nc1nc(/C(=N/O)C(=O)N[C@@H]2C(=O)N3C(C(=O)O)=C(/C=C4\CCN([C@@H]5CCNC5)C4=O)CS[C@H]23)ns1	rule not met
C[C@@H](O)[C@H]1C(=O)N2C(C(=O)O)=C(S[C@@H]3CN[C@H](C(=O)N(C)C)C3)[C@H](C)[C@H]12	rule met

Exercise: Criterion: MIC90 strictly below 8 µg/mL. Is it met by "CC(C)(O/N=C(\C(=O)N[C@@H]1C(=O)N2C(C(=O)[O-])=C(C[n+]3ccccc3)CS[C@H]12)c1csc(N)n1)C(=O)O" ?
Solution: rule not met

Exercise: Could you please tell me whether MIC90 recorded for "CO/N=C(\C(=O)N[C@@H]1C(=O)N2C(C(=O)O)=C(CSc3nc(=O)c(O)nn3C)CS[C@H]12)c1csc(N)n1" is less than 8 µg/mL?
Solution: rule not met

* * *

Test system: Staphylococcus epidermidis
EXPERIMENT: Antibacterial activity against coagulase-negative Staphylococcus epidermidis obtained from complicated skin and skin structure infections by agar dilution method
Format: functional
MEASURED_METRIC: MIC90 (µg/mL)
One number for each entry, in µg/mL.

Exercise: Form field: reported MIC90 of CN[C@H](CC(C)C)C(=O)N[C@H]1C(=O)N[C@@H](CC(N)=O)C(=O)N[C@H]2C(=O)N[C@H]3C(=O)N[C@H](C(=O)N[C@H](C(=O)O)c4cc(O)cc(O)c4-c4cc3ccc4O)[C@H](O)c3ccc(c(Cl)c3)Oc3cc2cc(c3O[C@@H]2O[C@H](CO)[C@@H](O)[C@H](O)[C@H]2O[C@H]2C[C@](C)(N)[C@H](O)[C@H](C)O2)Oc2ccc(cc2Cl)[C@H]1O [VANCOMYCIN]
Solution: 2

* * *

Tested on: Staphylococcus aureus
EXPERIMENT: Antibacterial activity against methicillin resistant Staphylococcus aureus obtained from complicated skin and skin structure infections by agar dilution method
Format: functional
Kindly supply the reported MIC50 values for the records listed here.
Answers are plain numbers, in µg/mL.

These solved cases illustrate the format of a correct answer.
COMPOUND	VALUE_UNIT	MIC50
Nc1nc(/C(=N/O)C(=O)N[C@@H]2C(=O)N3C(C(=O)O)=C(/C=C4\CCN([C@@H]5CCNC5)C4=O)CS[C@H]23)ns1 [CEFTOBIPROLE]	µg/mL	0.5
C[C@H]1COc2c(N3CCN(C)CC3)c(F)cc3c(=O)c(C(=O)O)cn1c23.C[C@H]1COc2c(N3CCN(C)CC3)c(F)cc3c(=O)c(C(=O)O)cn1c23.O [LEVOFLOXACIN]	µg/mL	4
Cc1onc(-c2ccccc2)c1C(=O)N[C@@H]1C(=O)N2[C@@H]1SC(C)(C)[C@@H]2C(=O)O [OXACILLIN]	µg/mL	16

Turning to the following compound.
Exercise: Param item = CCC[C@@H]1C[C@@H](C(=O)N[C@@H]([C@H]2O[C@H](SC)[C@H](O)[C@@H](O)[C@H]2O)[C@H](C)Cl)N(C)C1 [CLINDAMYCIN] ; retrieve measured MIC50.
Solution: 0.12

* * *

Test system: Staphylococcus cohnii
EXPERIMENT: Antibacterial activity against coagulase-negative Staphylococcus cohnii obtained from complicated skin and skin structure infections by agar dilution method
Type: functional
MEASURED_METRIC: MIC50 (µg/mL)
Give bare numbers, in µg/mL.

MOLECULAR_STRING	MEASURED_METRIC	ASSAY_VALUE
CC(=O)NC[C@H]1CN(c2ccc(N3CCOCC3)c(F)c2)C(=O)O1	MIC50	1
C[C@H]1COc2c(N3CCN(C)CC3)c(F)cc3c(=O)c(C(=O)O)cn1c23.C[C@H]1COc2c(N3CCN(C)CC3)c(F)cc3c(=O)c(C(=O)O)cn1c23.O	MIC50	0.12

Please state, for each entry, its recorded MIC50.
1. Cc1onc(-c2ccccc2)c1C(=O)N[C@@H]1C(=O)N2[C@@H]1SC(C)(C)[C@@H]2C(=O)O
2. CC[C@H]1OC(=O)[C@H](C)[C@@H](O[C@H]2C[C@@](C)(OC)[C@@H](O)[C@H](C)O2)[C@H](C)[C@@H](O[C@@H]2O[C@H](C)C[C@H](N(C)C)[C@H]2O)[C@](C)(O)C[C@@H](C)C(=O)[C@H](C)[C@@H](O)[C@]1(C)O
3. CCC[C@@H]1C[C@@H](C(=O)N[C@@H]([C@H]2O[C@H](SC)[C@H](O)[C@@H](O)[C@H]2O)[C@H](C)Cl)N(C)C1
4. CN[C@H](CC(C)C)C(=O)N[C@H]1C(=O)N[C@@H](CC(N)=O)C(=O)N[C@H]2C(=O)N[C@H]3C(=O)N[C@H](C(=O)N[C@H](C(=O)O)c4cc(O)cc(O)c4-c4cc3ccc4O)[C@H](O)c3ccc(c(Cl)c3)Oc3cc2cc(c3O[C@@H]2O[C@H](CO)[C@@H](O)[C@H](O)[C@H]2O[C@H]2C[C@](C)(N)[C@H](O)[C@H](C)O2)Oc2ccc(cc2Cl)[C@H]1O
5. Nc1nc(/C(=N/O)C(=O)N[C@@H]2C(=O)N3C(C(=O)O)=C(/C=C4\CCN([C@@H]5CCNC5)C4=O)CS[C@H]23)ns1

Solution:
0.5
0.25
0.06
1
0.5

Cited source: ChEMBL document CHEMBL1275492
